# credit: the supplement of paper PMC11061612

Tested on: OVCAR-5 (Ovarian Carcinoma)
Assay: combination Emax (second highest fraction inhibited in the dose matrix, 72 h); higher = more inhibition; extreme values may be limits of the assay
Items are presented alongside their recorded combination Emax.
Enter a number only.

| compound | assay-system | measurement-type | reported-result |
| --- | --- | --- | --- |
| Cc1c2c(nn1C)CSCc1cc(n(C)n1)CSc1cc(c3ccccc3c1)OCCCc1c(C(=O)O)n(C)c3c-2c(Cl)ccc13 [AZD5991] + C[C@@H](Nc1cc(F)cc(F)c1)c1cc(C(=O)N(C)C)cc2c(=O)cc(N3CCOCC3)oc12 [AZD8186] (first compound max 1 µM, 7x7, partner max 3 µM) | OVCAR-5 (Ovarian Carcinoma) | combination Emax | 0.267 |

Query string: What value of combination Emax has been reported for the following compound? Cc1c2c(nn1C)CSCc1cc(n(C)n1)CSc1cc(c3ccccc3c1)OCCCc1c(C(=O)O)n(C)c3c-2c(Cl)ccc13 [AZD5991] + Nc1ccn([C@@H]2O[C@H](CO)[C@@H](O)C2(F)F)c(=O)n1 [Gemcitabine] (first compound max 1 µM, 7x7, partner max 0.3 µM)
Result string: 0.422

Query string: Would you mind telling me what combination Emax value was observed for COc1nnc2ccc(N3CCC(c4ccc(OCCN5CCN(C)C(=O)[C@H]5C)cc4)CC3)nn12 [AZD5153] + C=CCn1c(=O)c2cnc(Nc3ccc(N4CCN(C)CC4)cc3)nc2n1-c1cccc(C(C)(C)O)n1 [AZD1775] (first compound max 1 µM, partner max 1 µM) ?
Result string: 0.563

Query string: Can you look up the measured combination Emax of COc1cccc(OCCCN)c1-c1cc(Nc2cnc(C#N)cn2)n[nH]1 [Prexasertib] + O=C(c1cc(Cc2n[nH]c(=O)c3ccccc23)ccc1F)N1CCN(C(=O)C2CC2)CC1 [Olaparib] (first compound max 1 µM, 7x7, partner max 10 µM) for me?
Result string: 0.693

Query string: I would be grateful if you could share the reported combination Emax for Cc1cc2ncnn2cc1Nc1ncc2c(n1)n(C1CCOCC1)c(=O)n2C [AZD7648] + CN(C)CCCOc1ccc(-c2ccc3ncc4c(c3c2)n(C2CCOCC2)c(=O)n4C)cn1 [AZD0156] (first compound max 10 µM, 7x7, partner max 1 µM) .
Result string: 0.287
